Assay: chemical genetic growth profiling, strain panel (AID 1159580);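 further: tested at 20 µM; growth read once vehicle control cultures reached saturation at 30 °C; 1 = growth at the plate median or of vehicle wells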
Conditions: S. cerevisiae deletion strains, growth OD, locus YOL012C, strain htz1
Hit rate of the full screen: of about 5,500 compounds, about 2,000 (36%) were called active. Another 18% or so got no clear call; they are omitted. Some of the results follow.
Label Criterion met when normalized growth >= 0.8; otherwise Criterion not met.

Nc1nc(N)c2nc(-c3ccccc3)c(N)nc2n1	Criterion met

**Query** Determine whether this compound has normalized growth no lower than 0.8: O=c1c2ccccc2oc2ccc(O)cc12
**Result** Criterion met

**Query** Determine whether this compound has normalized growth no lower than 0.8: CC(=O)O[C@H]1C[C@H](O[C@H]2[C@@H](O)C[C@H](O[C@H]3[C@@H](O)C[C@H](O[C@H]4CC[C@@]5(C)C(CCC6C5C[C@@H](O)[C@]5(C)[C@@H](C7=CC(=O)OC7)CC[C@]65O)C4)O[C@@H]3C)O[C@@H]2C)O[C@H](C)[C@H]1O[C@@H]1O[C@H](CO)[C@@H](O)[C@H](O)[C@H]1O (some centres undefined)
**Result** Criterion met

**Query** Determine whether this compound has normalized growth no lower than 0.8: COc1c(O)cccc1O
**Result** Criterion met

**Query** Determine whether this compound has normalized growth no lower than 0.8: NCC(=O)CCC(=O)O
**Result** Criterion met

**Query** Determine whether this compound has normalized growth no lower than 0.8: COc1c(O)cc2c(-c3ccccc3)cc(=O)oc2c1OC
**Result** Criterion met

**Query** Determine whether this compound has normalized growth no lower than 0.8: COc1cc([C@@H]2c3cc4c(cc3C(O[C@@H]3O[C@@H]5CO[C@@H](c6cccs6)OC5[C@H](O)[C@H]3O)C3COC(=O)[C@@H]32)OCO4)cc(OC)c1O (some centres undefined)
**Result** Criterion met

**Query** Determine whether this compound has normalized growth no lower than 0.8: Cc1cc(=O)c2c(o1)-c1c(cc(O)c(O)c1C(=O)O)OC2
**Result** Criterion not met

**Query** Determine whether this compound has normalized growth no lower than 0.8: O=C1c2c(O)ccc(O)c2C(=O)c2c(NCCNCCO)ccc(NCCNCCO)c21
**Result** Criterion met

**Query** Determine whether this compound has normalized growth no lower than 0.8: Cn1nnnc1SCC1=C(C(=O)O)N2C(=O)C(NC(=O)C(O)c3ccccc3)C2SC1 (centres undefined)
**Result** Criterion met

**Query** Determine whether this compound has normalized growth no lower than 0.8: O=C(/C=C/c1ccccc1)c1ccc(O)cc1
**Result** Criterion not met

**Query** Determine whether this compound has normalized growth no lower than 0.8: CC1(C)O[C@@H]2CC3C4C[C@H](F)C5=CC(=O)C=C[C@]5(C)[C@@]4(F)[C@@H](O)C[C@]3(C)[C@]2(C(=O)CO)O1 (some centres undefined)
**Result** Criterion not met

**Query** Determine whether this compound has normalized growth no lower than 0.8: CC1(C)O[C@@H]2CC3C4C[C@H](F)C5=CC(=O)C=CC5(C)C4C(O)CC3(C)[C@]2(C(=O)CO)O1 (some centres undefined)
**Result** Criterion met

**Query** Determine whether this compound has normalized growth no lower than 0.8: O=C1CCc2cc(OCCCCc3nnnn3C3CCCCC3)ccc2N1
**Result** Criterion met

**Query** Determine whether this compound has normalized growth no lower than 0.8: OC1C(O)C(O)C(O)C(O)C1O (centres undefined)
**Result** Criterion met

**Query** Determine whether this compound has normalized growth no lower than 0.8: Cc1cc(=O)c2c(O)c3c(cc2o1)OC(C)(C)CC3
**Result** Criterion met

**Query** Determine whether this compound has normalized growth no lower than 0.8: Cn1c(=O)c2[nH]c(C3CCCC3)nc2n(C)c1=O
**Result** Criterion not met

**Query** Determine whether this compound has normalized growth no lower than 0.8: COc1cc([C@@H]2c3cc4c(cc3[C@H](O)[C@H]3COC(=O)[C@@H]23)OCO4)cc(OC)c1OC
**Result** Criterion met

###

Assay: chemical genetic growth profiling, strain panel (AID 1159580)
Settings: S. cerevisiae deletion strains, growth OD, locus YCL011C, strain gbp2, stronger effect = lower value
Screen size: about 5,500 compounds; about 2,000 (36%) were called active. Inconclusive results (about 18%) are left out. This is one part of the list.
Kindly apply the following: 1 if normalized growth is less than 1, 0 in every other case.

Please review the entries below; each comes with its answer.
COc1cccc2c1cc([N+](=O)[O-])c1c(C(=O)O)cc3c(c12)OCO3	0
CC1(C)O[C@@H]2CC3C4C[C@H](F)C5=CC(=O)C=C[C@]5(C)[C@@]4(F)[C@@H](O)C[C@]3(C)[C@]2(C(=O)CO)O1 (some centres undefined)	0
CN(C)CCC=C1c2ccccc2CCc2ccccc21	1

**Query** Say whether its normalized growth is strictly beneath 1. Entry: CCCCCCc1ccc(O)cc1O
**Result** 1

**Query** Say whether its normalized growth is strictly beneath 1. Entry: CC(C)c1ccc2c(c1O)CC[C@H]1C3=C(CC[C@]21C)C(=O)OC3
**Result** 1

**Query** Say whether its normalized growth is strictly beneath 1. Entry: CCCCCCCCCc1ccc(O)cc1
**Result** 1

**Query** Say whether its normalized growth is strictly beneath 1. Entry: CNCCC=C1c2ccccc2CCc2ccccc21
**Result** 1

**Query** Say whether its normalized growth is strictly beneath 1. Entry: O=c1c2ccccc2oc2ccccc12
**Result** 1

###

Experiment: chemical genetic growth profiling, strain panel (AID 1159580);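 further: tested at 20 µM; growth read once vehicle control cultures reached saturation at 30 °C; 1 = growth at the plate median or of vehicle wells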
Conditions: S. cerevisiae deletion strains, growth OD, locus YNR052C, strain pop2
About 2,000 (36%) of roughly 5,500 compounds were called active. About 18% were inconclusive and are not listed. Cut-off read from the data, not from the text of the source: active = normalized growth mostly below about 0.91 (no sharp cut-off); inconclusive = no clear call, values can overlap the other calls; inactive = mostly above about 0.92. Some of the results follow.
Reply using exactly one outcome from active, inactive

C[N+]1(CCCCC[N+]2(C)CCCC2)CCCC1	inactive
O=c1[nH]c2cc(Cl)c(Cl)cc2[nH]c1=O	inactive
O=c1c(-c2ccccc2)coc2cc(O)cc(O)c12	active
O=c1c(-c2ccc(O)cc2)coc2cc(O)cc(O)c12	inactive

**Query** # lookup: test call for CC(=O)Oc1cc(OC(C)=O)c2c(=O)c(-c3ccccc3)coc2c1
**Result** inactive

**Query** # lookup: test call for NCCc1ccc(O)c(O)c1
**Result** inactive

**Query** # lookup: test call for CSc1ccc2c(c1)C(N1CCN(C)CC1)Cc1ccccc1S2 (stereo not given)
**Result** active

**Query** # lookup: test call for NCCc1ccc(O)cc1
**Result** inactive

**Query** # lookup: test call for O=C1CCc2cc(OCCCCc3nnnn3C3CCCCC3)ccc2N1
**Result** inactive

**Query** # lookup: test call for CC(N)Cc1ccc(O)cc1 (stereo not given)
**Result** inactive

**Query** # lookup: test call for COc1cc(O)c2c(=O)c(-c3ccc(O)cc3)coc2c1
**Result** inactive

**Query** # lookup: test call for CN1CCN2c3ccccc3Cc3ccccc3C2C1 (stereo not given)
**Result** inactive

**Query** # lookup: test call for CCCCCCCCCc1ccc(O)cc1
**Result** active

**Query** # lookup: test call for COC(=O)C[C@H]1C(C)(C)C(=O)[C@@H]2CC3=C4CC(OC)O[C@@H](c5ccoc5)[C@]4(C)CCC3[C@@]1(C)C2=O (stereo not given in full)
**Result** inactive

**Query** # lookup: test call for CC(=O)O[C@@H]1CC2C(C)(C)CCC(=O)[C@]2(C)C2CC[C@@]3(C)[C@H](c4ccoc4)OC(=O)C4OC43[C@@]21C (stereo not given in full)
**Result** inactive

**Query** # lookup: test call for Cn1c(=O)c2[nH]c(C3CCCC3)nc2n(C)c1=O
**Result** inactive

**Query** # lookup: test call for COc1ccc(-c2coc3cc(OC)cc(O)c3c2=O)cc1
**Result** inactive

###

Test: chemical genetic growth profiling, strain panel (AID 1159580);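 further: tested at 20 µM; growth read once vehicle control cultures reached saturation at 30 °C; 1 = growth at the plate median or of vehicle wells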
Conditions: S. cerevisiae deletion strains, growth OD, locus YHR079C, strain IRE1
About 2,000 (36%) of roughly 5,500 compounds were called active. Inconclusive results (about 18%) are left out. Rule as the data show it: active = normalized growth mostly below about 0.91 (no sharp cut-off); inconclusive = no clear call, values can overlap the other calls; inactive = mostly above about 0.92. This is one part of the list.
Reply using exactly one outcome from active, inactive

Please review the entries below; each comes with its answer.
CC(=O)C1CCC2C3CC=C4CC(OS(=O)(=O)O)CC[C@]4(C)C3CC[C@]12C (stereo partly drawn)	inactive
CCCCCCCCCCCCCCCCCCCCCCO	inactive
CCCCCCCCCCCCCCCC[n+]1ccccc1	active

// next entry
**Query** # lookup: test call for Cn1nnnc1SCC1=C(C(=O)O)N2C(=O)C(NC(=O)C(O)c3ccccc3)C2SC1 (stereo not drawn)
**Result** inactive

###

Overview of recorded normalized growth for various molecules
Experiment: chemical genetic growth profiling, strain panel (AID 1159580);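 further: tested at 20 µM; growth read once vehicle control cultures reached saturation at 30 °C; 1 = growth at the plate median or of vehicle wells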
Conditions: S. cerevisiae deletion strains, growth OD, locus YNL233W, strain BNI4, stronger effect = lower value
In all, about 5,500 compounds went through this assay and about 2,000 (36%) were called active. About 18% were inconclusive and are not listed. The list shows a part of the results.
Please reply with the value in numeric form only.

Example entries begin here.
Cc1cc(=O)c2c(o1)-c1c(cc(O)c(O)c1C(=O)O)OC2	1.02
CC(=O)O.CC(=O)O.[Cd]	0.394

**Query** // query normalized growth value for entry CC1=NCCc2c1[nH]c1cc(O)ccc21
**Result** 1

**Query** // query normalized growth value for entry Nc1nc(N)c2nc(-c3ccccc3)c(N)nc2n1
**Result** 1

**Query** // query normalized growth value for entry CCOC(=O)C1C(C=C(C)C)C1(C)C (centres undefined)
**Result** 1

**Query** // query normalized growth value for entry CC1(C)O[C@@H]2CC3C4C[C@H](F)C5=CC(=O)C=C[C@]5(C)[C@@]4(F)[C@@H](O)C[C@]3(C)[C@]2(C(=O)CO)O1 (some centres undefined)
**Result** 1

**Query** // query normalized growth value for entry O=C1c2c(O)ccc(O)c2C(=O)c2c(NCCNCCO)ccc(NCCNCCO)c21
**Result** 0.966

**Query** // query normalized growth value for entry CN1CCOC(c2ccccc2)c2ccccc2C1 (centres undefined)
**Result** 1.01

**Query** // query normalized growth value for entry CC(=O)Oc1c(-c2ccccc2)oc2c(CC=C(C)C)c3c(c(OC(C)=O)c2c1=O)C=CC(C)(C)O3
**Result** 0.915

**Query** // query normalized growth value for entry Cc1cc(=O)c2c(O)c3c(cc2o1)OCC(C)CC3 (centres undefined)
**Result** 0.826

**Query** // query normalized growth value for entry CCCN1C[C@H](CSC)C[C@@H]2c3cccc4[nH]cc(c34)C[C@H]21
**Result** 0.981

Cited source for all entries: PubChem BioAssay AID1159580
